# System: UO-31 renal
# experimental protocol: NCI-60 one-dose screen, 48 h (100 = growth as untreated, 0 = no growth, -100 = all killed)
# condition: 10 µM unless noted
Compounds without any hit were thinned out: in the full panel of roughly 83,000, 20% have a hit.
Returns True if the recorded growth is greater than or equal to 80%, and False otherwise.

Some solved cases for reference:
CCN(CC)CCCNC(=O)c1ccc(N)cc1O = False
COc1ccc(N(C)c2nc(Cl)nc3cnn(C)c23)cc1 = False
CCCCCCCC/C=C\CCCCCCCC(=O)Oc1cccc2cccnc12 = True
Cc1cc(-c2ccc(N(C)C)cc2)c2sc(=O)[nH]c2n1 = False
CN=C1C=CC(=C(c2ccc(N(C)C)cc2)c2ccc(N(C)C)cc2)C=C1 = False

Does "C=CC(=O)N[C@@H](Cc1ccc(-c2cc(Cl)cc(Cl)c2)cc1)[C@@H](O)[C@H](O)C(=O)O" have a reported growth of at least 80%?
True

Does "Cc1nc(Nc2cccc(NC(=O)Nc3ccc(Cl)cc3)c2)c2ccccc2n1" have a reported growth of at least 80%?
True

Does "CC(C)OCCCNCC(=O)Nc1ccc(S(=O)(=O)c2ccc(NC(=O)CNCCCOC(C)C)cc2)cc1" have a reported growth of at least 80%?
True

Does "COc1cc2c(c(OC)c1OC)C(=O)/C(=C/c1cc(C)c(O)c(C)c1)S2" have a reported growth of at least 80%?
False

* * *

Entries and their growth
# Test system: SK-MEL-28 melanoma
# experimental protocol: NCI-60 one-dose screen, 48 h (100 = growth as untreated, 0 = no growth, -100 = all killed)
# condition: 10 µM unless noted
About 83,000 compounds went through this panel and 20% of them were active in at least one assay; those are over-represented in the sample as a whole. Calls of active or inactive are those of the source. How the source made its calls: active means growth percent below 10; inactive means the rest.

CCCCCCCCn1cc(C2=C(c3coc4ccc(OC)cc34)C(=O)NC2=O)c2ccccc21 = 101% (inactive)
Cc1[nH]c(-c2nc3ccccc3[nH]2)c(C)c1C(=O)N1CCOCC1 = 105% (inactive)
COc1cc(-c2ccc(-c3ccc(C(=N)N)nc3)s2)cc(OC)c1OC = 59.3% (inactive)
COc1cc(NC(=O)c2cccc(-c3cc(=O)c4c(OC)c(OC)c(OC)cc4o3)c2)cc(OC)c1OC = 63.5% (inactive)
Clc1ccc2[nH]c3c(NCCCN4CCOCC4)ncnc3c2c1 = 91.2% (inactive)

Notebook: COc1ccc(C2CC(c3ccccc3)=NN2c2nc(C)c(C(C)=O)s2)cc1 (centres undefined) , growth read as 112% (inactive)

Notebook: "Nc1c(-c2nc3ccccc3c(=O)[nH]2)nnn1-c1ccc(Cl)cc1" , growth read as 81.1% (inactive)

Notebook: O=C(c1ccccc1)c1ccc(N2C(=O)C3C4c5ccccc5C(/C=C/C(=O)c5ccccn5)(c5ccccc54)C3C2=O)cc1 (centres undefined) , growth read as 13.4% (inactive)

Notebook: "O=S(=O)(NCCNc1cc(-c2c(-c3cccc(O)c3)nc3sccn23)ccn1)c1ccc(Br)cc1" , growth read as 84.9% (inactive)

* * *

# System: 786-0 renal
# experimental protocol: NCI-60 one-dose screen, 48 h
# condition: 10 µM unless noted
About 83,000 compounds went through this panel and 20% of them were active in at least one assay; those are over-represented in the sample as a whole. Active and inactive are the calls of the source. How the source made its calls: active means growth percent below 10; inactive means the rest.
Pick one: 1.0 = active, 0.0 = inactive

Some solved cases for reference:
COc1ccc(OC)c(Nc2nc3nonc3nc2Nc2cc(OC)ccc2OC)c1 = 1.0
C/C(=N\NC(=O)Cn1c(-c2ccc(S(C)(=O)=O)cc2)nc2cc(Cl)ccc21)c1ccc(Cl)cc1 = 0.0
CCCCOc1ccc(NC(=O)n2nc(N=NN(C)C)c3ccc(Cl)cc32)cc1 = 0.0
CN1CCC(=C2c3ccccc3C=Cc3ccccc32)CC1 = 0.0
C/C(=N\NC(N)=S)c1nc2ccc(Cl)cc2[nH]1 = 0.0
N#Cc1c(-c2ccccc2)nc(SCC2CO2)nc1N1CCOCC1 (stereo unspecified) = 0.0
COc1ccc(Oc2nc(Nc3ccc(N4CCCCC4)nc3)ncc2NC(=O)c2cc(OC)cc(OC)c2)cc1 = 0.0
CCCN1CCN(c2ccc3nc(-c4ccc5nc(-c6cc(OC)c(OC)c(OC)c6)[nH]c5c4)[nH]c3c2)CC1 = 0.0

Test call for this compound, please: CCN(CC)CC(O)CNc1c2ccc(Cl)cc2nc2ccc(OC)cc12 (stereo unspecified)
1.0

Test call for this compound, please: "O=C1NCC(=O)N(Cc2ccco2)[C@H]1Cc1ccccc1"
0.0

* * *

# System: SK-MEL-5 melanoma
# experimental protocol: NCI-60 one-dose screen, 48 h
# condition: 10 µM unless noted
This is part of a sample that, as a whole, favours compounds with a hit. Of some 83,000 tested, about 20% had one in any assay. Activity calls are given as the source filed them. The calls were made as follows: active = growth percent below 10; inactive = the rest.
Pick one: YES for active, NO for inactive

Some solved cases for reference:
CCn1nc(C#Cc2c(C)ccc3c(Nc4ccc(Cl)cc4)nccc23)c2c(N)ncnc21 = YES
O=C(O)c1ccccc1C(=O)Nc1ccc(Cl)cc1 = NO
CCOc1cc(N)ccc1C(=O)NCCCN(CC)CC = NO
CC(C)(O)c1cccc(F)c1 = NO
CC(=[N-])N1CCC[C@@H](Nc2c3ccccc3nc3ccccc23)C1.[Cl][Pt].[NH-]CCC[NH-] = YES

Pending compound:
Test call for this compound, please: "C=C1C(=O)O[C@H]2[C@H]1CC/C(Cn1cc(CNCCc3c[nH]c4ccccc34)nn1)=C\CC[C@@]1(C)O[C@@H]21"
NO

* * *

# Test system: OVCAR-4 ovarian
# experimental protocol: NCI-60 one-dose screen, 48 h
# condition: 10 µM unless noted
This is part of a sample that, as a whole, favours compounds with a hit. Of some 83,000 tested, about 20% had one in any assay. Activity calls are given as the source filed them. The calls were made as follows: active = growth percent below 10; inactive = the rest.
Pick one: active, inactive

Some solved cases for reference:
COc1cc(-c2ccc(-c3ccc(C(=N)N)nc3)s2)cc(OC)c1OC = inactive
CCN(CC)CC(=O)Nc1cccc(C(=O)OC(C)C)c1 = inactive
O=C(c1ccccc1)c1ccc(Cl)c([N+](=O)[O-])c1 = inactive
COc1ccc(/C=C(\C#N)n2nnc3ccccc32)cc1 = inactive
CC1(C)N=C(N)N=C(N)N1c1cccc(CN)c1 = inactive

Test call for this compound, please: CSc1nc(N)c(CNC(C)c2ccccc2)c(=O)n1C (stereo unspecified)
inactive

Test call for this compound, please: "N#Cc1c(-c2ccc(C(F)(F)F)cc2)cc(N2CC(O)C2)n2c1nc1ccccc12"
active

Test call for this compound, please: "C=C1C(=O)O[C@H]2[C@H]1CC/C(COC(=O)/C=C\C(=O)NCc1ccc(Cn3c(=O)sn(-c4ccc(OC)cc4)c3=O)cc1)=C\CC[C@@]1(C)O[C@@H]21"
active

Test call for this compound, please: COc1cc(C2C=C(c3cccc(NC(C)=O)c3)Nc3ncnn32)cc(OC)c1OC (stereo unspecified)
inactive

Test call for this compound, please: O=C1CSC(c2ccc(O)cc2)N1c1nnc(Cn2cnnc2)o1 (stereo unspecified)
inactive

Test call for this compound, please: "Cc1cc(-c2ccc(N(C)C)cc2)c2sc(=O)[nH]c2n1"
inactive

Test call for this compound, please: "COc1ccccc1NC(=O)Nc1ccc(-c2nc3ccccc3o2)cc1"
inactive

Test call for this compound, please: "CN(C)CCN1C(=O)c2cccc3c(-c4ccc(-c5nc6c7ccccc7c7ccccc7c6[nH]5)cc4)ccc(c23)C1=O"
active

Test call for this compound, please: "Cc1nc(Nc2ccccn2)sc1C(=O)/C=C/c1ccc(Br)cc1"
inactive

Test call for this compound, please: "Cc1cc(N2CCCCC2)nc(N(CCNc2ccnc3cc(Cl)ccc23)Cc2ccccn2)n1"
inactive

Test call for this compound, please: "COc1cc2c(c(OC)c1OC)C(=O)/C(=C/c1cc(C)c(O)c(C)c1)S2"
inactive

Test call for this compound, please: "N#Cc1c(N)nc2c(nnn2-c2cccc(Br)c2)c1N"
inactive

* * *

# Tested on: K-562 leukemia
# experimental protocol: NCI-60 one-dose screen, 48 h (100 = growth as untreated, 0 = no growth, -100 = all killed)
# condition: 10 µM unless noted
Compounds without any hit were thinned out: in the full panel of roughly 83,000, 20% have a hit.
Entries and their growth
Give the quantity in %, number only.

Consider the reported growth for these compounds:
NS(=O)(=O)c1cn(-c2ncnc3nc[nH]c23)ccc1=O = 84.6
Cl.Fc1c[c-]c(-c2ccccn2)c(F)c1.[Pt].c1ccc([PH+](c2ccccc2)c2ccccc2[PH+](c2ccccc2)c2ccccc2)cc1 = 0.976
CN1C(=O)CCC(N2C(=O)c3cccc(NCCOCCOCCNC(=O)c4cc5c(o4)C(=O)c4ccccc4C5=O)c3C2=O)C1=O (centres undefined) = 10.5

Turning to the following compound.
Notebook: "O=S(=O)(NCCNc1cc(-c2c(-c3cccc(O)c3)nc3sccn23)ccn1)c1ccc(Br)cc1" , growth read as 34.5
